Values compiled from ChEMBL document CHEMBL1132640.

Target: UniProt:P62993
Sequence (P62993 whole entry, the tested form may be a part): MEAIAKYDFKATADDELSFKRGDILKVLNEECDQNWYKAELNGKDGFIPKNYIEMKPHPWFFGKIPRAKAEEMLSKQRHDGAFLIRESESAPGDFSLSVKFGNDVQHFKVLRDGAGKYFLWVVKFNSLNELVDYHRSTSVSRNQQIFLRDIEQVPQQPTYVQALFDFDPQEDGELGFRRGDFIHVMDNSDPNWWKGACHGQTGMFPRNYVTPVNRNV
Assay: Inhibition of Grb2-SH2 domain binding to phospho-EGF receptor intracellular C-terminal domain
value_type: IC50 (nM)
Numbers only, in nM.

Please give measured IC50 of the following entry: NC(=O)C[C@H](NC(=O)C1(NC(=O)[C@H](Cc2ccc(OP(=O)(O)O)cc2)NC(=O)OCc2cccc(N)c2)CCCCC1)C(N)=O
1
